Data origin, for the record: PubChem BioAssay AID699

# Lookup of reported inhibition keyed by entry
biological target: UniProtKB P21462; test: FPR antagonists blocking calcium signaling, confirmation, cell-based, calcium response (AID 699); conditions: FPR1 cells, ligand-induced calcium response inhibition; active compounds read high; concentration not given here
Sequence (P21462 whole entry, looked up): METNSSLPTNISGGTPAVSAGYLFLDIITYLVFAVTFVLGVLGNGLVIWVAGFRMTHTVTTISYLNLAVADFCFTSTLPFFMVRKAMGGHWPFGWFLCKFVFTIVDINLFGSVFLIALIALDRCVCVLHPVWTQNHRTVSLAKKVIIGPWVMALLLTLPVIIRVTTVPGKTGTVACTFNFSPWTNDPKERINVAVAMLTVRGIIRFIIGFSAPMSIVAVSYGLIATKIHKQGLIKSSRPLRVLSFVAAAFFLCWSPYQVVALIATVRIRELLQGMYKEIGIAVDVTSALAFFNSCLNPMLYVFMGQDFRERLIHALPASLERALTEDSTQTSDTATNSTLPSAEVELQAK
Provide only the numeric value, understood in %.

Recorded inhibition, per entry:
Cc1[nH]n2c(=O)c(C#N)c(-c3ccccc3)nc2c1-c1ccccc1	104
COc1cc(C2C(C(=O)c3ccco3)=C(O)C(=O)N2CCc2ccccc2)ccc1O (stereo not drawn)	98.8
O=C(NC1CCCC1)c1sc(=S)n2c1[nH]c(=O)c1ccccc12	97
Cc1ccc(C2/C(=C(/O)c3ccc(Cl)cc3)C(=O)C(=O)N2CC2CCCO2)o1 (stereo not drawn)	15.5

Query block: I have this compound here, COCCCN1C(=O)C(O)=C(C(=O)c2ccco2)C1c1ccccc1 (stereo not drawn) , and I need its recorded inhibition.
Result block: 56.7

Query block: What about this compound? O=C1C(CCS(=O)c2ccccc2)C(=O)N(c2ccccc2)N1c1ccccc1 (stereo not drawn)
Result block: -0

Query block: What about this compound? O=C(C1=C(O)C(=O)N(Cc2ccccc2)C1c1ccco1)c1ccco1 (stereo not drawn)
Result block: 56.9

Query block: What about this compound? CCC(=O)Nc1c(C#N)c2nc3ccccc3nc2n1-c1ccccc1C
Result block: 91.7
